# System: T-47D human breast cancer cell line
# METHOD_DESCRIPTION: SRB antiproliferative assay, T-47D
# Type: cell-based
# CONDITION_CONTEXT: IC50 MCF-10A / IC50 T-47D
# Protocol: We determined the effect of various structural factors in the substrates on the antiproliferative activity against those selected to the study cell lines: the location and/or the presence of the prenyl group, the chalcone/flavanone skeleton and the presence of an O-methyl group at C-5 in flavanones. […] The in vitro antiproliferative activity was measured using SRB assay. […]
MEASURE: Selectivity index SIB, T-47D
Give bare numbers.

Below are worked cases with known answers.
CC(C)=CCc1c(O)cc(O)c2c1OC(c1ccc(O)cc1)CC2=O (centres unmarked): 3.40
O=C1C[C@@H](c2ccc(O)cc2)Oc2cc(O)cc(O)c21 [NG, Naringenin, reference compound]: 1.79
COc1cc(O)c(CC=C(C)C)c(O)c1C(=O)CCc1ccc(O)cc1: 9.91

Parameters: items (list). Returns: Selectivity index SIB, T-47D for each item.
1. CC(C)=CCc1c(O)cc2c(c1O)C(=O)CC(c1ccc(O)cc1)O2 (centres unmarked)
2. COc1cc(O)c(CC=C(C)C)c(O)c1C(=O)/C=C/c1ccc(O)cc1

Result:
6.87
7.00

---

Answer each item with its documented IC50.
# System: MDA-MB-231 human breast cancer cell line
# METHOD_DESCRIPTION: SRB antiproliferative assay, MDA-MB-231
# Format: cell-based
# CONDITION_CONTEXT: Homo sapiens, MDA-MB-231; SRB, 72 h, mean ± SD
Give bare numbers, in µM.

Below are worked cases with known answers.
COc1cc(O)c(CC=C(C)C)c(O)c1C(=O)/C=C/c1ccc(O)cc1: 8.46
CC(C)=CCc1c(O)cc2c(c1O)C(=O)CC(c1ccc(O)cc1)O2 (centres unmarked): 62.6
CC(C)=CCc1c(O)cc(O)c2c1OC(c1ccc(O)cc1)CC2=O (centres unmarked): 63.8
COc1cc(O)c(CC=C(C)C)c(O)c1C(=O)CCc1ccc(O)cc1: 10

Alright, here's another molecule for you.
Problem: Request the reported IC50 associated with O=C1C[C@@H](c2ccc(O)cc2)Oc2cc(O)cc(O)c21 [NG, Naringenin, reference compound]
Result: 166

---

# System: HT-29 human colon cancer cell line
# METHOD_DESCRIPTION: SRB antiproliferative assay, HT-29
# Type: cell-based
# CONDITION_CONTEXT: Homo sapiens, HT-29; SRB, 72 h, mean ± SD
The label y is reserved for IC50 strictly under 60 µM; n covers values equal to or above it.

Recorded results for 4 molecules are shown here.
O=C1C[C@@H](c2ccc(O)cc2)Oc2cc(O)cc(O)c21 [NG, Naringenin, reference compound]: n
CC(C)=CCc1c(O)cc2c(c1O)C(=O)CC(c1ccc(O)cc1)O2 (centres unmarked): n
COc1cc(O)c(CC=C(C)C)c(O)c1C(=O)CCc1ccc(O)cc1: y
CC(C)=CCc1c(O)cc(O)c2c1OC(c1ccc(O)cc1)CC2=O (centres unmarked): n

Problem: For this molecule, is IC50 lower than 60 µM? COc1cc(O)c(CC=C(C)C)c(O)c1C(=O)/C=C/c1ccc(O)cc1
Result: y

---

Answer each item with its documented pIC50.
# System: HLMEC human lung microvascular endothelial cell line
# METHOD_DESCRIPTION: SRB antiproliferative assay, HLMEC (normal)
# Assay type: cell-based
# CONDITION_CONTEXT: Homo sapiens, Endothelial cell, 72 h, mean ± SD
Answers are plain numbers, as −log10 of the molar value.

O=C1C[C@@H](c2ccc(O)cc2)Oc2cc(O)cc(O)c21 [NG, Naringenin, reference compound]: 3.93
COc1cc(O)c(CC=C(C)C)c(O)c1C(=O)CCc1ccc(O)cc1: 4.85
CC(C)=CCc1c(O)cc(O)c2c1OC(c1ccc(O)cc1)CC2=O (centres unmarked): 4.62
CC(C)=CCc1c(O)cc2c(c1O)C(=O)CC(c1ccc(O)cc1)O2 (centres unmarked): 4.86

Alright, here's another compound for you.
Problem: Request the reported pIC50 associated with COc1cc(O)c(CC=C(C)C)c(O)c1C(=O)/C=C/c1ccc(O)cc1
Result: 5.02

---

# Test system: MCF7 human breast cancer cell line
# METHOD_DESCRIPTION: SRB antiproliferative assay, MCF7
# Format: cell-based
# CONDITION_CONTEXT: IC50 MCF-10A / IC50 MCF-7
Use 3 as the dividing line for Selectivity index SIB, MCF-7, with the line itself on the rule met side and lower values as rule not met.

Recorded results for 4 compounds are shown here.
O=C1C[C@@H](c2ccc(O)cc2)Oc2cc(O)cc(O)c21 [NG, Naringenin, reference compound]: rule not met
COc1cc(O)c(CC=C(C)C)c(O)c1C(=O)/C=C/c1ccc(O)cc1: rule met
COc1cc(O)c(CC=C(C)C)c(O)c1C(=O)CCc1ccc(O)cc1: rule met
CC(C)=CCc1c(O)cc2c(c1O)C(=O)CC(c1ccc(O)cc1)O2 (centres unmarked): rule not met

Would you kindly look at the next entry?
Problem: Textbook exercise: given the entry CC(C)=CCc1c(O)cc(O)c2c1OC(c1ccc(O)cc1)CC2=O (centres unmarked) , state whether its Selectivity index SIB, MCF-7 is greater than or equal to 3.
Result: rule not met

---

Answer each item with its documented Selectivity index SIA, PC-3.
# Test system: PC-3 human prostate cancer cell line
# METHOD_DESCRIPTION: SRB antiproliferative assay, PC-3
# Type: cell-based
# CONDITION_CONTEXT: IC50 HLMEC / IC50 PC-3
Answers are plain numbers.

COc1cc(O)c(CC=C(C)C)c(O)c1C(=O)CCc1ccc(O)cc1: 0.87
COc1cc(O)c(CC=C(C)C)c(O)c1C(=O)/C=C/c1ccc(O)cc1: 1.11
CC(C)=CCc1c(O)cc2c(c1O)C(=O)CC(c1ccc(O)cc1)O2 (centres unmarked): 0.18

Parameters: items (list). Returns: Selectivity index SIA, PC-3 for each item.
1. O=C1C[C@@H](c2ccc(O)cc2)Oc2cc(O)cc(O)c21 [NG, Naringenin, reference compound]
2. CC(C)=CCc1c(O)cc(O)c2c1OC(c1ccc(O)cc1)CC2=O (centres unmarked)

Result:
[0.68, 0.47]

---

Answer each item with its documented Selectivity index SIB, HT-29.
# Test system: HT-29 human colon cancer cell line
# METHOD_DESCRIPTION: SRB antiproliferative assay, HT-29
# Type: cell-based
# CONDITION_CONTEXT: IC50 MCF-10A / IC50 HT-29

Below are worked cases with known answers.
O=C1C[C@@H](c2ccc(O)cc2)Oc2cc(O)cc(O)c21 [NG, Naringenin, reference compound]: 1.43
CC(C)=CCc1c(O)cc2c(c1O)C(=O)CC(c1ccc(O)cc1)O2 (centres unmarked) [6PN]: 1.70
COc1cc(O)c(CC=C(C)C)c(O)c1C(=O)CCc1ccc(O)cc1 [2HXN]: 5.89
CC(C)=CCc1c(O)cc(O)c2c1OC(c1ccc(O)cc1)CC2=O (centres unmarked) [8PN]: 1.00

Alright, here's another compound for you.
Problem: Request the reported Selectivity index SIB, HT-29 associated with COc1cc(O)c(CC=C(C)C)c(O)c1C(=O)/C=C/c1ccc(O)cc1 [XN]
Result: 5.94

---

Answer each item with its documented Selectivity index SIB, Du-145.
# Tested on: DU 145 human prostate cancer cell line
# METHOD_DESCRIPTION: SRB antiproliferative assay, DU 145
# Format: cell-based
# CONDITION_CONTEXT: IC50 MCF-10A / IC50 Du-145

Parameters: items (list). Returns: Selectivity index SIB, Du-145 for each item.
1. CC(C)=CCc1c(O)cc(O)c2c1OC(c1ccc(O)cc1)CC2=O (centres unmarked) [8PN]
2. O=C1C[C@@H](c2ccc(O)cc2)Oc2cc(O)cc(O)c21 [NG, Naringenin, reference compound]
3. COc1cc(O)c(CC=C(C)C)c(O)c1C(=O)/C=C/c1ccc(O)cc1 [XN]

Result:
1.50
1.40
8.62

Parameters: items (list). Returns: Selectivity index SIB, Du-145 for each item.
1. COc1cc(O)c(CC=C(C)C)c(O)c1C(=O)CCc1ccc(O)cc1 [2HXN]
2. CC(C)=CCc1c(O)cc2c(c1O)C(=O)CC(c1ccc(O)cc1)O2 (centres unmarked) [6PN]

Result:
5.56
1.38

---

# System: MCF7 human breast cancer cell line
# METHOD_DESCRIPTION: SRB antiproliferative assay, MCF7
# Format: cell-based
# CONDITION_CONTEXT: Homo sapiens, MCF7, 72 h, SRB, 72 h, mean ± SD
MEASURE: log10 IC50 (log10 of the value in µM)
In plain terms, each number is the log10 of measured IC50 in µM.

Below are worked cases with known answers.
COc1cc(O)c(CC=C(C)C)c(O)c1C(=O)CCc1ccc(O)cc1: 1.00
O=C1C[C@@H](c2ccc(O)cc2)Oc2cc(O)cc(O)c21 [NG, Naringenin, reference compound]: 2.12
CC(C)=CCc1c(O)cc2c(c1O)C(=O)CC(c1ccc(O)cc1)O2 (centres unmarked): 1.64
COc1cc(O)c(CC=C(C)C)c(O)c1C(=O)/C=C/c1ccc(O)cc1: 1.03

Problem: Request the reported log10 IC50 associated with CC(C)=CCc1c(O)cc(O)c2c1OC(c1ccc(O)cc1)CC2=O (centres unmarked)
Result: 1.69
